Each recorded value in this set is attributed to ChEMBL document CHEMBL3507680.

# TEST: Human HepG2 cell viability assay in 384 well format
# Assay type: toxicity, cell-based
# Design: dose 125 nL, time 70.5 hour; concentration not given beside the values
# MEASUREMENT_SETUP: HepG2 cells, read-out: Inhibition
READOUT_KIND: cytotoxicity at 70.5 h
Answer with the value and then the unit.

Bench note: what cytotoxicity at 70.5 h did CCC(CNC(C)=O)(OC)c1ccccc1 (configuration not stated) show?
-6.06%

Can you share its cytotoxicity at 70.5 h? I mean this compound: `CC(C)(C)n1cc(C#N)cc1NC(=O)CCNC(=O)c1ccco1`
11.3%

Fill in: cytotoxicity at 70.5 h of `O=C(O)[C@@H]1CN(C(=O)CCc2ccccn2)C[C@H]1c1ccccc1` is ___
-4.59%

Recorded cytotoxicity at 70.5 h for CCNC(c1ccc(F)cc1)c1cccnc1 (configuration not stated) , please?
-19.7%

# query: cytotoxicity at 70.5 h of entry Cc1ccccc1C(NC(=O)CCCS(C)(=O)=O)C(C)(C)C (configuration not stated)
14.3%

What does the data say about its cytotoxicity at 70.5 h? Entry: `CCc1nc(CCn2ccc3nc(OC)c(C#N)cc3c2=O)no1`
-4.1%

Request the reported cytotoxicity at 70.5 h associated with `c1cn2c(n1)CO[C@@H](CNCc1ccc3c(c1)OCO3)C2`
-4.1%
